Value source: ChEMBL document CHEMBL1138360

Tested on: SiHa
Test: Cytotoxicity against SiHa cells under hypoxic condition after 4 hrs
Format: functional, cell-based
Settings: Homo sapiens
I'd appreciate it if you could supply log10(IC50) values for the items below.
Remember, log10 of IC50, in µM.

Task: For the compound shown here, "[O-][n+]1nc(-c2ccccc2)[n+]([O-])c2ccccc21" , give the reported log10(IC50).
Output: 0.34

Task: For the compound shown here, "CCc1n[n+]([O-])c2ccc(OC)cc2[n+]1[O-]" , give the reported log10(IC50).
Output: 0.83

Task: For the compound shown here, "CCc1n[n+]([O-])c2cc(OCCCO)ccc2[n+]1[O-]" , give the reported log10(IC50).
Output: 0.43

Task: For the compound shown here, "CCc1n[n+]([O-])c2ccc(OCCO)cc2[n+]1[O-]" , give the reported log10(IC50).
Output: 0.90

Task: For the compound shown here, "CCc1n[n+]([O-])c2ccc(OCCCN3CCOCC3)cc2[n+]1[O-]" , give the reported log10(IC50).
Output: 0.63

Task: For the compound shown here, "CN(C)CCCc1n[n+]([O-])c2ccccc2[n+]1[O-]" , give the reported log10(IC50).
Output: -0.70

---

I'd appreciate it if you could supply MTD values for the items below.
Assay: Toxicity in ip dosed CD1 mouse
Assay type: organism-based
Details: in vivo

Task: For the compound shown here, "CCc1n[n+]([O-])c2ccc(OCCN3CCCCC3)cc2[n+]1[O-]" , give the reported MTD.
Output: 178 µmol/kg

Task: For the compound shown here, "COCCc1n[n+]([O-])c2ccccc2[n+]1[O-]" , give the reported MTD.
Output: 421 µmol/kg

Task: For the compound shown here, "CCc1n[n+]([O-])c2ccc(OC)cc2[n+]1[O-]" , give the reported MTD.
Output: 750 µmol/kg

Task: For the compound shown here, "CCc1n[n+]([O-])c2ccc(OCCN(C)C)cc2[n+]1[O-]" , give the reported MTD.
Output: 562 µmol/kg

Task: For the compound shown here, "CCc1n[n+]([O-])c2cc(OCCCN3CCOCC3)ccc2[n+]1[O-]" , give the reported MTD.
Output: 421 µmol/kg

Task: For the compound shown here, "CCc1n[n+]([O-])c2ccc(OCCCN3CCOCC3)cc2[n+]1[O-]" , give the reported MTD.
Output: 1000 µmol/kg

Task: For the compound shown here, "CCc1n[n+]([O-])c2ccccc2[n+]1[O-]" , give the reported MTD.
Output: 562 µmol/kg

---

Assay: Terminal half life in CD1 mouse plasma at 750 umol/kg, ip
Assay type: ADME, organism-based
property: half-life (min)
Numbers only; they are read as min.

Task: For the molecule shown here, "CCc1n[n+]([O-])c2ccc(OCCCN3CCOCC3)cc2[n+]1[O-]" , give the reported half-life.
Output: 34.8

---

Experiment: Cmax in CD1 mouse plasma at 133 umol/kg, ip
Format: ADME, organism-based
Set-up: dose 133 umol/kg, route intraperitoneal
property: Cmax (µM)
Numbers only; they are read as µM.

Task: For the compound shown here, "CCc1n[n+]([O-])c2ccc(OCCN3CCCCC3)cc2[n+]1[O-]" , give the reported Cmax.
Output: 9.8

---

Assay: Solubility in culture medium in presence of 5% fetal calf serum
Format: physicochemical
Conditions: culture medium with 5% fetal calf serum
Use 7 mM as the dividing line for solubility, with the line itself on the Satisfied side and lower values as Not satisfied.

Task: Is reported solubility greater than or equal to 7 mM here: "CCc1n[n+]([O-])c2cc(OCCN(C)C)ccc2[n+]1[O-].Cl"
Output: Satisfied

Task: Is reported solubility greater than or equal to 7 mM here: "CCc1n[n+]([O-])c2ccc(OCCOC)cc2[n+]1[O-].Cl"
Output: Not satisfied

Task: Is reported solubility greater than or equal to 7 mM here: "COc1n[n+]([O-])c2ccccc2[n+]1[O-].Cl"
Output: Satisfied

Task: Is reported solubility greater than or equal to 7 mM here: "CN(C)CCCc1n[n+]([O-])c2ccccc2[n+]1[O-].Cl"
Output: Satisfied

Task: Is reported solubility greater than or equal to 7 mM here: "COCCc1n[n+]([O-])c2ccccc2[n+]1[O-].Cl"
Output: Satisfied

Task: Is reported solubility greater than or equal to 7 mM here: "Cc1n[n+]([O-])c2ccccc2[n+]1[O-].Cl"
Output: Satisfied

Task: Is reported solubility greater than or equal to 7 mM here: "CCc1n[n+]([O-])c2ccc(OCCO)cc2[n+]1[O-].Cl"
Output: Satisfied

Task: Is reported solubility greater than or equal to 7 mM here: "CCc1n[n+]([O-])c2ccccc2[n+]1[O-].Cl"
Output: Satisfied

Task: Is reported solubility greater than or equal to 7 mM here: "Cl.[O-][n+]1nc(CCCN2CCCCC2)[n+]([O-])c2ccccc21"
Output: Satisfied

Task: Is reported solubility greater than or equal to 7 mM here: "COCCc1n[n+]([O-])c2ccc(C)cc2[n+]1[O-].Cl"
Output: Not satisfied
